experiment: Identification of proteins required for the processing of the EWS-FLI1 nascent transcript; details: TC32 Ewing sarcoma NR0B1-luc vs CMV-luc, 48 h; screened at 20 nM (by protocol);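 also: robust z of luciferase light less the median z of siRNAs with the same seed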
In all, about 59,000 sequences were measured (the read-out: median about -0.00055, lowest 2% from about -2 on). This is one part of a sample in which the lowest values are shown more often than they occur.
Please use the following seed-corrected z-score ranges when assigning a class: lower (below -0.2), middle (-0.2 to below 0.4), upper (0.4 or more)

• UCCUGGAGCACAUCAGUGC against ASPRV1 = middle
• UGCAUGGUGAUAGUCAGGU against CD7 = middle
• AAACUACCCAAUUGUAAUC against OR9A4 = upper
• UGUUGUACAACGAUAGCCU against RELL1 = lower
• UUAACCGAUAUAUCCAUGG against LRRTM4 = middle

Ask: Sort UAGCGGGUCUCAUCAAAGC against HGFAC into one of the categories.
Result: upper

Ask: Bin this entry: UUUGCAUCCCUCGCACUUG against MT3
Result: middle

Ask: For the record UACGUUUCUGAAGAAGGUG against FAM231D , report the class its seed-corrected z-score corresponds to.
Result: upper

----------
For each of the sequences below, state its seed-corrected z-score.
test: Identification of proteins required for the processing of the EWS-FLI1 nascent transcript; conditions: TC32 Ewing sarcoma NR0B1-luc vs CMV-luc, 48 h; screened at 20 nM (by protocol);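 also: robust z of luciferase light less the median z of siRNAs with the same seed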
Whole data set: some 59,000 sequences, median the read-out near -0.00055, cut for the lowest 2% near -2. The entries come from a sample that favours the lowest values as a whole.

Past entries and their recorded results:
• UUCUUAGCUCCCACGAUCC against ZNF512 = 0.51
• UUACCUAUCCCUGAGACAC against MICAL2 = 0.383
• UUUGUUCCAGGGAUGUACU against CYCS = 0.577

Would you be so kind as to report seed-corrected z-score for each listed record?
1. AUUUGGACCAGUAUGCUUC against HNRNPH1
2. UAGUUGUCAGUGAAGACUG against VIP
3. UCAUGUAUAAACAGUCGCC against ALDH7A1

Result:
1. -2.98
2. -2.09
3. 0.368

----------
assay: Identification of proteins required for the processing of the EWS-FLI1 nascent transcript; details: TC32 Ewing sarcoma NR0B1-luc vs CMV-luc (EWS-FLI1 target promoter against control promoter), 48 h; screened at 20 nM (by protocol);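 also: robust z of luciferase light less the median z of siRNAs with the same seed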
The full ranking holds about 59,000 sequences; the median of the read-out is about -0.00055, and the lowest 2% start at about -2. Many of the other results were omitted from the sample, so the lowest values are more common in it than they were.
MEASURED ENDPOINT: seed-corrected z-score
Numbers only.

Study these solved cases before continuing.
* AAAGUUGGAAUACCGAGGU against C15orf61 | 0.00537
* AAACUUGGUUGAGUGAUCC against KRBA2 | 0.654
* UAUGUCGUCUUGGAGAUCG against SNRNP27 | -0.0915
* AAAGCGAGUUUUCUCAUCC against COPA | -4.21
* UAUAGAACAAGGUAAAUCC against MTF2 | 0.208

For each entry beneath this line, provide reported seed-corrected z-score.
1. UCAUCAUCAAUCACGGACG against BAP1
2. UAGACAUACAUUGAACUCC against SPINK6
3. AUCCGAACCAGGUAGACAC against PRTG
4. UAUGGGUUUGUUAAAAGGC against FUT6

Result:
1: -2.03; 2: 1.21; 3: 0.374; 4: -0.26
